test: forskolin-driven CRE-LacZ activity in PC12 – cell-based, CRE-LacZ reporter, forskolin-stimulated, primary screen (AID 1146); conditions: luminescence, 4.5 h, higher = more signal, called active from +8 up or from −8 down;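 further: PC12 cells with 6xCRE LacZ reporter stimulated by forskolin 10 µM; beta-galactosidase reporter signal reflecting CREB driven transcription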
Response key: class 1 means z-score >= -0.4; class 0 means z-score < -0.4.

compound	category-label
C=CCOC(=O)[C@H]1[C@@H]2C(=O)O[C@@H](c3ccccc3)[C@@H](c3ccccc3)N2[C@@H](c2ccc(OCCOC(=O)[C@@H]3C[C@@H]4C(=O)N5CCC[C@H]5C(=O)N4[C@@H]3c3cccc(OCCO)c3)cc2)[C@]12C(=O)Nc1ccc(I)cc12	class 0
OB1C=CCC(CCc2ccccc2)O1 (stereo unspecified)	class 0
CCOC(=O)C1=CC[C@@H](c2ccccc2)N(S(=O)(=O)c2ccc(C)cc2)[C@H]1c1ccc(CC)cc1	class 1
COC(=O)[C@@]1(Cc2ccccc2)[C@H]2c3cc(C(=O)N(C)C)n(CCc4c[nH]c5ccc(O)cc45)c3C[C@H]2CN1C(=O)c1ccccc1	class 1
C=CCN(Cc1ccccc1)C(=O)C(c1cccs1)N(C(=O)/C=C\C(=O)O)c1ccc(CCOCCO)cc1 (stereo unspecified)	class 0
Cc1c(NC(=O)/C(C#N)=C/c2cccc([N+](=O)[O-])c2)c(=O)n(-c2ccccc2)n1C	class 0
O=C1O[C@H](c2ccccc2)[C@H](c2ccccc2)N2[C@H]1[C@@H](C(=O)NC[C@H](O)c1ccccc1)[C@]1(C(=O)Nc3ccccc31)[C@H]2c1ccc(O)cc1	class 0
O=C(O)[C@H](Cc1ccccc1)n1cc(-c2ccccc2)nn1	class 1
C=C(C)[C@@H]1CC=C(C(O)C2C=CC3C(=O)NC(=O)C3N2Nc2ccc(Cl)cc2Cl)CC1 (stereo partly specified)	class 1
O=C1C2C=CC(C(O)c3ccc(F)cc3)N(Nc3ccc([N+](=O)[O-])cc3)C2C(=O)N1c1ccccc1 (stereo unspecified)	class 1
CCCNC(=O)[C@@]1(Sc2ccc(C)cc2)CC(=O)N(Cc2ccccc2C(F)(F)F)[C@@H]1c1ccc(CO)cc1I	class 1
COc1ccc(C(O)C2C=CC3C(=O)N(C)C(=O)C3N2N(c2ccccc2)c2ccccc2)c2ccccc12 (stereo unspecified)	class 1
C=CCNC(=O)[C@H]1[C@@H]2C(=O)O[C@@H](c3ccccc3)[C@@H](c3ccccc3)N2[C@@H](c2ccc(O)cc2)[C@]12C(=O)Nc1ccc(C#CCCO)cc12	class 0
CCCCC(=C=CC[C@H](O)c1cccc(OCCO)c1)C[C@H](O)c1ccccn1	class 0
C=CCC(OC(C)=O)[C@@H]1[C@@H](N(Cc2ccc(-c3ccccc3)cc2)C(=O)Cc2ccc(F)cc2)c2cc(OCCCO)ccc2N1C(=O)c1ccc2ccccc2c1 (stereo partly specified)	class 1
[N-]=[N+]=Nc1ccccc1C[C@]1(C(=O)NCc2ccccc2)N=C(c2ccc(OCCCO)cc2)O[C@H]1c1ccccc1N=[N+]=[N-]	class 0
